# System Name: Nuclear receptor subfamily 1 group I member 2 (Homo sapiens)
# Method Description: NVS_NR_hPXR: NovaScreen (NVS) Nuclear Receptor Binding Assay for human Pregnane X Receptor (PXR) (AID 2283365);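 further: a drop in FRET signal versus DMSO baseline means the compound binds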
Results filed as inconclusive are left out. Active and inactive are the calls of the source. How the source made its calls: active means hit-call score of the fitted dose curve at least 0.9, where 1 is the maximum; inconclusive means response in the unintended direction; inactive means score below 0.9.
// allowed return values: active, inactive

Examples from the recorded data:
                            sample_smiles  category_label
0  CCOC(=O)NC(=S)Nc1ccccc1NC(=S)NC(=O)OCC          active
1              [CH3][Sn]([CH3])([Cl])[Cl]        inactive
2           CN(C)C(=O)C(c1ccccc1)c1ccccc1        inactive

What outcome does the record of this test show for "CCCCCCCCCCCCCCCC[N+](C)(C)C" ?
active

What outcome does the record of this test show for "CC(C)(c1cc(Cl)c(O)c(Cl)c1)c1cc(Cl)c(O)c(Cl)c1" ?
active

What outcome does the record of this test show for "Cc1ccc(C)c2ccccc12" ?
inactive

====

# System Name: Paired box protein Pax-6 (Homo sapiens)
# Method Description: ATG_Pax6_CIS: Attagene CIS-FACTORIAL HepG2 Assay for human Paired Box 6 (PAX6) (AID 2282956)
# Conditions: HepG2 CIS-FACTORIAL PAX6 reporter transcription, RNA readout; actives raise or lower the signal
Calls of active or inactive are those of the source. How the source made its calls: active means hit-call score of the fitted dose curve at least 0.9, where 1 is the maximum; inactive means score below 0.9.
// allowed return values: active, inactive

>>> print(df.to_string())
                          molecule                              system_name  category_label
0  Cc1ncc(C[n+]2csc(CCO)c2C)c(N)n1  Paired box protein Pax-6 (Homo sapiens)        inactive

What outcome does the record of this test show for "Nc1cc(Cl)cc(Cl)c1" ?
inactive

What outcome does the record of this test show for "O=P(O)(Oc1ccccc1)Oc1ccccc1" ?
inactive

What outcome does the record of this test show for "O=S(=O)(O)O" ?
inactive

What outcome does the record of this test show for "N#CCCCl" ?
inactive

What outcome does the record of this test show for CC(Cc1ccc(C(C)(C)C)cc1)CN1C[C@@H](C)O[C@@H](C)C1 (stereo partly drawn) ?
inactive

What outcome does the record of this test show for "S=c1[nH]c2ccccc2[nH]1" ?
inactive

What outcome does the record of this test show for "C=CCO" ?
inactive

What outcome does the record of this test show for "N#Cc1cccc(C#N)c1" ?
inactive

What outcome does the record of this test show for "CC(=O)/C=C/c1ccccc1" ?
active

What outcome does the record of this test show for "C=COCCCl" ?
inactive

====

# Method Description: CEETOX_H295R_PROG: CeeTox H295R High-throughput Steroidogenesis Assay for Progesterone (PROG) (AID 2283442)
# Conditions: actives raise or lower the signal
Calls of active or inactive are those of the source. Rule for the calls: active = hit-call score of the fitted dose curve at least 0.9, where 1 is the maximum; inactive = score below 0.9.
// allowed return values: T = active, F = inactive

Examples from the recorded data:
In [3]: df
Out[3]:
                                   molecule  category_label
0      CCOP(=O)(OCC)Oc1ccc([N+](=O)[O-])cc1               F
1  O=C(NC(=O)c1c(F)cccc1F)Nc1ccc(Oc2ccc(C(F)(F)F)cc2Cl)cc1F               T
2  Cc1ccc(OP(=O)(Oc2ccc(C)cc2)Oc2ccc(C)cc2)cc1 (tested in a mixture with another compound)               F
3  CC(C)(C)C(O)C(Oc1ccc(-c2ccccc2)cc1)n1cncn1 (stereo unspecified)               F
4                CNC(=O)Oc1cc(C)c(SC)c(C)c1               T

Turning now to a further record.
What outcome does the record of this test show for O=CNC(N1CCN(C(NC=O)C(Cl)(Cl)Cl)CC1)C(Cl)(Cl)Cl (stereo unspecified) ?
F

====

# Method Description: BSK_3C_VCAM1: BioMAP Diversity Plus: 3C Assay for Vascular cell adhesion molecule 1 (VCAM1) Biomarker Activity (AID 2282999)
# Conditions: BioMAP 3C HUVEC, VCAM1 ELISA, cytokine-stimulated; actives raise or lower the signal
The source made the active and inactive calls. Rule for the calls: active = hit-call score of the fitted dose curve at least 0.9, where 1 is the maximum; inactive = score below 0.9.
// allowed return values: active, inactive

>>> df
                   molecule  category_label
0  CCCC[N+](CCCC)(CCCC)CCCC        inactive

What outcome does the record of this test show for "N#CCCCCC#N" ?
inactive

What outcome does the record of this test show for "CCCCCCCCCCCC#N" ?
active

What outcome does the record of this test show for "COCC(=O)N(c1c(C)cccc1C)N1CCOC1=O" ?
inactive

What outcome does the record of this test show for "Clc1ccc(-c2ccccc2)cc1" ?
inactive

What outcome does the record of this test show for CCC(C)c1cc([N+](=O)[O-])cc([N+](=O)[O-])c1OC(=O)C=C(C)C (stereo not given) ?
active

What outcome does the record of this test show for "[Cd+2].[Cl-].[Cl-]" ?
inactive

What outcome does the record of this test show for "CC(=O)/C=C/c1ccccc1" ?
active

What outcome does the record of this test show for "CNC(=O)Oc1cc(C)c(SC)c(C)c1" ?
active

What outcome does the record of this test show for CC(C)(C)C(O)C(Oc1ccc(-c2ccccc2)cc1)n1cncn1 (stereo not given) ?
inactive

What outcome does the record of this test show for "CC(C)CCCCCCCOC(=O)c1ccccc1C(=O)OCCCCCCCC(C)C" ?
inactive

What outcome does the record of this test show for "Nc1ccc(-c2ccc(N)c(N)c2)cc1N" ?
inactive

====

# Method Description: TOX21_p53_BLA_p3_viability: Viability Assessment in the Tox21 HCT-116 p53 Agonism Beta-lactamase Assay, Phase 3 (AID 2283593);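 further: cells exposed to compound for 16 h before reading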
Records with an inconclusive call do not appear. Active and inactive are the calls of the source. Rule for the calls: active = hit-call score of the fitted dose curve at least 0.9, where 1 is the maximum; inconclusive = response in the unintended direction; inactive = score below 0.9.
// allowed return values: t for active, f for inactive

Examples from the recorded data:
                                   compound  category_label
0           CC(C)CC(C)N (centres undefined)               f
1  COc1cc(N)c(Cl)cc1C(=O)NC1CN2CCC1CC2 (centres undefined)               f
2                                   N#CCCCl               f
3                      COC(=O)c1ccc(CBr)cc1               f
4                          OC(O)C(Cl)(Cl)Cl               f

What outcome does the record of this test show for COC(COC(N)=O)C1=C(N2CC2)C(=O)C(C)=C(N2CC2)C1=O (centres undefined) ?
t

What outcome does the record of this test show for "CCc1cccc(C)c1N(C(=O)CCl)[C@@H](C)COC" ?
f

What outcome does the record of this test show for "CCCC[N+](CCCC)(CCCC)CCCC" ?
f

What outcome does the record of this test show for "CC[C@]1(O)CC[C@H]2[C@@H]3CCC4=CCCC[C@@H]4[C@H]3CC[C@@]21C" ?
f

What outcome does the record of this test show for "C=CCN(CC=C)C(=O)C(Cl)Cl" ?
f

What outcome does the record of this test show for "c1ccccc1" ?
f

What outcome does the record of this test show for CC(C)(C)NCC(O)c1ccccc1Cl (centres undefined) ?
f

What outcome does the record of this test show for "CCCCCCCCCCCCCCCCCCn1cc[n+](C)c1" ?
f

What outcome does the record of this test show for "O=[N+]([O-])c1ccc([As](=O)(O)O)cc1" ?
f

====

# Method Description: IUF_NPC1b_proliferation_BrdU_72hr: Leibniz Research Institute for Environmental Medicine (IUF) 72-hour Neural Progenitor Cell Bromodeoxyuridine (BrdU) Proliferation Assay (NPC1b) (AID 2284207)
Activity calls are given as the source filed them. The calls were made as follows: active = hit-call score of the fitted dose curve at least 0.9, where 1 is the maximum; inactive = score below 0.9.
// allowed return values: active, inactive

Examples from the recorded data:
                                   compound  category_label
0  CC(C)CC(C)c1sccc1NC(=O)c1cn(C)nc1C(F)(F)F (stereo not drawn)        inactive
1  CC1(C)C(C=C(Cl)Cl)[C@H]1C(=O)O[C@H](C#N)c1cccc(Oc2ccccc2)c1 (stereo partly drawn)        inactive
2  CCOP(=S)(OCC)SCS(=O)C(C)(C)C (stereo not drawn)          active
3  C/C(=C/C=C/[C@@H](C)C(=O)O)[C@H]1CN[C@H](C(=O)O)[C@H]1CC(=O)O        inactive

What outcome does the record of this test show for "CC(=O)[O-].[Tl+]" ?
active

What outcome does the record of this test show for "CC1(C)[C@@H](C=C(Cl)Cl)[C@@H]1C(=O)O[C@@H](C#N)c1ccc(F)c(Oc2ccccc2)c1" ?
inactive

What outcome does the record of this test show for "CC(C)CCCCCCCOP(=O)(Oc1ccccc1)Oc1ccccc1" ?
inactive

What outcome does the record of this test show for "[O-][Cl+3]([O-])([O-])O" ?
active

What outcome does the record of this test show for CNC1(c2ccccc2Cl)CCCCC1=O (stereo not drawn) ?
inactive

What outcome does the record of this test show for "Brc1ccc(Oc2cc(Br)c(Br)cc2Br)c(Br)c1" ?
inactive

What outcome does the record of this test show for "O=[As]O" ?
active

What outcome does the record of this test show for "COP(=O)(OC)SCN1C(=O)c2ccccc2C1=O" ?
active

What outcome does the record of this test show for "O=C1N[C@@H]2C(=C[C@H](O)[C@@H](O)[C@H]2O)c2cc3c(c(O)c21)OCO3" ?
active
